Test system: mGrn mRNA
Assay: mGrn mRNA qPCR in Neuro2a cells transfected with ASOs
Assay type: cell-based, mouse
Details: Table 14; Neuro2a, 100 nM, 48 hours; normalized to sNTC3
Oligonucleotides are written 5' to 3', each unit as a sugar letter and its base; * is a phosphorothioate linkage, no mark a phosphodiester; rarer units and linkages stand in square brackets, end groups in braces. Plain capitals give the bases only. e = 2'-O-(2-methoxyethyl) (MOE); [5mC] = 5-methylcytosine
reported_endpoint: mGRN mRNA FC (FC)

{"substance": "CO-3578: ASO targeting the Grn promoter (− strand) (antisense eT*eT*e[5mC]*e[5mC]*eA*eA*e[5mC]*eT*eG*eG*eT*eT*eT*e[5mC]*eG*eA*eG*eT*e[5mC]*e[5mC])", "assay_target": "mGrn mRNA", "reported_endpoint": "mGRN mRNA FC", "readout_value": 1.0}
{"substance": "CO-3544: ASO targeting the mouse Grn promoter (− strand); targets mouse Grn paRNA (antisense eG*eT*eT*e[5mC]*eT*e[5mC]*e[5mC]*e[5mC]*eT*eA*eG*e[5mC]*eT*eG*eT*eG*eT*eA*eG*eT)", "assay_target": "mGrn mRNA", "reported_endpoint": "mGRN mRNA FC", "readout_value": 1.1}
